# Tested on: UO-31 renal
# procedureSummary: NCI-60 one-dose screen, 48 h
# experimentalParameters: 10 µM unless noted
This is part of a sample that, as a whole, favours compounds with a hit. Of some 83,000 tested, about 20% had one in any assay. Calls of active or inactive are those of the source. How the source made its calls: active means growth percent below 10; inactive means the rest.
Field 'call' accepts T (active), F (inactive)

Cc1ccc(/C=C2\COc3ccc(O)cc3C2=O)cc1: F
CC(=O)/C(=C\c1c(-c2ccccc2)[nH]c2ccccc12)S(C)(=O)=O: F
CCC1=C[C@@H]2C[C@]3(C(=O)OC)c4[nH]c5ccccc5c4CC[N@+](CC(=O)Nc4cc5c(cc4OC)N(C)[C@H]4[C@@](O)(C(=O)OC)[C@H](OC(C)=O)[C@]6(CC)C=CCN7CC[C@]54[C@@H]76)(C2)[C@H]13: F
O=C(Nc1cccc(-c2ccc(Cl)c(C(F)(F)F)c2)c1)C1CCN(Cc2cccc3cccnc23)CC1: T
CC(O)(c1ccccc1)C(c1ccccc1)C1CCCCN1 (stereo unspecified): F

Ask | Recorded call for Cc1ccc(-c2nc([P+](c3ccccc3)(c3ccccc3)c3ccccc3)c(S(=O)(=O)c3ccc(C)cc3)o2)cc1 ?
Reply | F

Ask | Recorded call for COc1ccc(C(O)c2cc3c(N)c(C(=O)Nc4cccc(Br)c4)sc3nc2C)cc1 (stereo unspecified) ?
Reply | F

Ask | Recorded call for CC(C)(Sc1cc(C(C)(C)C)c(O)c(C(C)(C)C)c1)Sc1cc(C(C)(C)C)c(OC(=O)CCCC(=O)O)c(C(C)(C)C)c1 ?
Reply | F

Ask | Recorded call for O=C(N/N=C/c1ccc(Cl)cc1)c1[nH]c2ccc(Cl)cc2c1-c1ccccc1 ?
Reply | F

Ask | Recorded call for CC(C)c1ccc(C(=O)Nc2nc3ccc(O)c(CN(C)C)c3s2)cc1 ?
Reply | F

Ask | Recorded call for CCCCCCCCCCCCCCCCCCOc1ccccc1CC(=O)OCC[N+](C)(C)C ?
Reply | F

Ask | Recorded call for Nc1n[nH]c2cccc(C#Cc3cccc(C(=O)Nc4cc(C(F)(F)F)cc(C(F)(F)F)c4)c3)c12 ?
Reply | F

Ask | Recorded call for CC(C)(C)[Si](C)(C)OC1[C@@H](CNC(=O)NC(=O)NC(N)=O)O[C@@H](n2cnc3c(NC(=O)Nc4ccccc4)ncnc32)[C@H]1O[Si](C)(C)C(C)(C)C (stereo partly specified) ?
Reply | F

Ask | Recorded call for COc1cc(-c2csc(NC(=O)c3ccc(N4CCOCC4)c(C(F)(F)F)c3)n2)cc(OC)c1OC ?
Reply | F

Ask | Recorded call for COC(=O)CC[C@@H]1O[C@@H](c2cccc(C(F)(F)F)c2)[C@@H](O)[C@H]1O ?
Reply | F
